tested on: anti-OVA-specific IgG2a subclass antibody; assay: Adjuvant activity test: anti-OVA-specific IgG2a subclass antibody in serum of OVA-immunized mice (ELISA); format: in vivo, BALB/c mice; conditions: after secondary immunization, serum 2 weeks later; OVA 5 μg + compound 0.256 μmol in 5% αCD-added saline (Addavax mixed with saline at 1:1), dorsal-subcutaneous; compared to OVA single administration group
measuredParameter: anti-OVA-specific IgG2a subclass antibody production

Req: Retrieve anti-OVA-specific IgG2a subclass antibody production on anti-OVA-specific IgG2a subclass antibody; query CCCCCCCCCCCCCCCCCC(=O)N[C@@H](CCCCN)C(=O)NCCCCCCCCCCCC.Cl
Resp: significant enhancement

Req: Retrieve anti-OVA-specific IgG2a subclass antibody production on anti-OVA-specific IgG2a subclass antibody; query CCCCCCCCCCCCCCCCCC(=O)N[C@@H](CCCCNC(=N)N)C(=O)NCCCCCC.Cl
Resp: significant enhancement
